Reference source: patent US20190112392A1

Can you tell me pEC50 for the items I'm about to list?
Biological target: T1, T cell receptor alpha/beta on purified primary human T cells (human, UniProt P01848 1-140; P01850 1-176)
T1 construct: whole, on cells; also called human primary T cells
T1 TCR alpha (looked up): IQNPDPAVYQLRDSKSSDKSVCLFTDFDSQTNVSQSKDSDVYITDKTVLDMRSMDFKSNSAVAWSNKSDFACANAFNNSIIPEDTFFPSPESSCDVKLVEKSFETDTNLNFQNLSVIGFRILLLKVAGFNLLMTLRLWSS
T1 TCR beta (looked up): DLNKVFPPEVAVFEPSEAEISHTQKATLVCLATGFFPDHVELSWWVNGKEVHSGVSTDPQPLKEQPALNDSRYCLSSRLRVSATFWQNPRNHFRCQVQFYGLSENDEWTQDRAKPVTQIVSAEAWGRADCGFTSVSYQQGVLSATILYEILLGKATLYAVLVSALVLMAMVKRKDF
Assay: flow cytometry, purified primary human T cells
Numbers only, as −log10 of the molar value.

Previously resolved entries follow.
binder	pEC50
T017000031 (bispecific antibody, TCR x CD20 bispecific Nanobody construct (cluster B); entry includes the FLAG3-HIS6 tag; also called T0170055C07-35GS-20CD019C07-FLAG3-HIS6) EVQLVESGGGLVQPGGSLRLSCITSGETFKINIWGWYRQAPGKQRELVASLTIGGATNYADSVKGRFTISEDSAKNTVYLQMNSLKPEDTAVYFCNAKSRLYPYDYWGQGTLVTVSSGGGGSGGGGSGGGGSGGGGSGGGGSGGGGSGGGGSEVQLVESGGGLVQPGGSLRLSCTFSGGTFSSYTMGWFRQAPGKEREFVAEVRWGGVTTYSNSLKDRFSISEDSVKNAVYLQMNSLKPEDTAVYYCAAVRQMYMTVVPDYWGQGTLVTVSSGAADYKDHDGDYKDHDIDYKDDDDKGAAHHHHHH	6.46
T017000055 (bispecific antibody, entry includes the FLAG3-HIS6 tag; also called 20CD019C07-35GS-T0170055A02-FLAG3-HIS6) EVQLVESGGGLVQPGGSLRLSCTFSGGTFSSYTMGWFRQAPGKEREFVAEVRWGGVTTYSNSLKDRFSISEDSVKNAVYLQMNSLKPEDTAVYYCAAVRQMYMTVVPDYWGQGTLVTVSSGGGGSGGGGSGGGGSGGGGSGGGGSGGGGSGGGGSEVQLVESGGGLVQPGGSLRLSCAASGDVHKINILGWYRQAPAKEREMVAHITIGDATDYADSAKGRFTISRDEAKNMVYLQMNSLKPEDTAVYFCRAYSRIYPYNYWGQGTLVTVSSGAADYKDHDGDYKDHDIDYKDDDDKGAAHHHHHH	6.89
T017000042 (bispecific antibody, TCR x CD20 bispecific Nanobody construct (cluster A); entry includes the FLAG3-HIS6 tag; also called T0170055A02-35GS-20CD019C07-FLAG3-HIS6) EVQLVESGGGLVQPGGSLRLSCAASGDVHKINILGWYRQAPAKEREMVAHITIGDATDYADSAKGRFTISRDEAKNMVYLQMNSLKPEDTAVYFCRAYSRIYPYNYWGQGTLVTVSSGGGGSGGGGSGGGGSGGGGSGGGGSGGGGSGGGGSEVQLVESGGGLVQPGGSLRLSCTFSGGTFSSYTMGWFRQAPGKEREFVAEVRWGGVTTYSNSLKDRFSISEDSVKNAVYLQMNSLKPEDTAVYYCAAVRQMYMTVVPDYWGQGTLVTVSSGAADYKDHDGDYKDHDIDYKDDDDKGAAHHHHHH	6.64

Provide reported pEC50 for each item, in the same order as listed.
1. T017000074 (bispecific antibody, TCR x CD20 bispecific Nanobody construct (cluster A); entry includes the FLAG3-HIS6 tag; also called T0170056G05-35GS-20CD019C07-FLAG3-HIS6) EVQLVESGGGLVQPGGSLRLSCVASGDVHKINFLGWYRQAPGKEREKVAHISIGDQTDYADSAKGRFTISRDESKNMVYLQMNSLKPEDTAVYFCRAFSRIYPYDYWGQGTLVTVSSGGGGSGGGGSGGGGSGGGGSGGGGSGGGGSGGGGSEVQLVESGGGLVQPGGSLRLSCTFSGGTFSSYTMGWFRQAPGKEREFVAEVRWGGVTTYSNSLKDRFSISEDSVKNAVYLQMNSLKPEDTAVYYCAAVRQMYMTVVPDYWGQGTLVTVSSGAADYKDHDGDYKDHDIDYKDDDDKGAAHHHHHH
2. T017000076 (bispecific antibody, CD20 x TCR bispecific Nanobody construct (cluster A); entry includes the FLAG3-HIS6 tag; also called 20CD019C07-35GS-T0170056G05-FLAG3-HIS6) EVQLVESGGGLVQPGGSLRLSCTFSGGTFSSYTMGWFRQAPGKEREFVAEVRWGGVTTYSNSLKDRFSISEDSVKNAVYLQMNSLKPEDTAVYYCAAVRQMYMTVVPDYWGQGTLVTVSSGGGGSGGGGSGGGGSGGGGSGGGGSGGGGSGGGGSEVQLVESGGGLVQPGGSLRLSCVASGDVHKINFLGWYRQAPGKEREKVAHISIGDQTDYADSAKGRFTISRDESKNMVYLQMNSLKPEDTAVYFCRAFSRIYPYDYWGQGTLVTVSSGAADYKDHDGDYKDHDIDYKDDDDKGAAHHHHHH

1: 6.72; 2: 6.89
